Data credit: patent US20140112930A1

target: T1, Dimeric Mouse Ang-2FD conjugated to human IgG1 (mouse (Mus musculus); human); assay: SPR, captured Ab, RT
T1 construct: also called Mouse Ang-2FD-hFc
T1 sequence (chain, as listed by the source limits assumed): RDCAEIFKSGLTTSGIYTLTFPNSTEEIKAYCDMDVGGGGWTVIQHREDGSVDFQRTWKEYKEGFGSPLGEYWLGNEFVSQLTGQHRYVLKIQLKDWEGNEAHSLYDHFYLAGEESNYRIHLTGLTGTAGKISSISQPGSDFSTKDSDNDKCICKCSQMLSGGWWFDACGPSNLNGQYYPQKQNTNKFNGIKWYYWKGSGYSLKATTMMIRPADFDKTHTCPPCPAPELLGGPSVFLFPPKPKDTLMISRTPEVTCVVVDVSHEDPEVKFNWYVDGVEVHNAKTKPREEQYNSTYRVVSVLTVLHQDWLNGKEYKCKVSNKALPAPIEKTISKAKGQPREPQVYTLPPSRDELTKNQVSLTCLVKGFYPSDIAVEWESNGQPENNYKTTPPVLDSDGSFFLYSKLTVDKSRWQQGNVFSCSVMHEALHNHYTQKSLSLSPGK
In this section, each of the binders is paired with its reported Kd.
Put down the number, then write its unit next to it.

Please review the following examples before continuing.
binder: H1H695P (antibody, V domains shown) VH: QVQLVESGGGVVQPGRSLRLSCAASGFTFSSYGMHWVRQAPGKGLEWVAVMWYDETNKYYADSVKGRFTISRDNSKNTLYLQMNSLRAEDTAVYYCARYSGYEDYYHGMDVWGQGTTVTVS VL: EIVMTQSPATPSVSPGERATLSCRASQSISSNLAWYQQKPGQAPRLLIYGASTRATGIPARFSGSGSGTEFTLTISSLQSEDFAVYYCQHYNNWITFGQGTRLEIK
assay_value: 0.347 nM
--
binder: H1H732N (antibody, V domains shown) VH: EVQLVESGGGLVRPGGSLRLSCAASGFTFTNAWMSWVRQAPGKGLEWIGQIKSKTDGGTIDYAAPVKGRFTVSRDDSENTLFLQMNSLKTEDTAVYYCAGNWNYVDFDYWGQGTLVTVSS VL: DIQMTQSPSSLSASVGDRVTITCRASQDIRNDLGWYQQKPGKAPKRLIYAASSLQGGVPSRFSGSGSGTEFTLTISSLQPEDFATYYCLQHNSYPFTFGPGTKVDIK
assay_value: 0.529 nM

Attention now turns to another entry.
*Q* Please report the recorded Kd for H2M742N (antibody, V domains shown) VH: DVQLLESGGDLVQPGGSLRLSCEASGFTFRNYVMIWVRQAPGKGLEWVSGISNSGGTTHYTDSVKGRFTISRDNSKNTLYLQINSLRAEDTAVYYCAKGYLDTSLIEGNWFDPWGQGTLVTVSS VL: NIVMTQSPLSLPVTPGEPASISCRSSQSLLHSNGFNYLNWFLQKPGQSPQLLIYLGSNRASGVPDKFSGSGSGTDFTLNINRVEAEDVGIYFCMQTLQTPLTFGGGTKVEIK .
*A* 0.61 nM
